Just for reference, PubChem BioAssay (NCI) is where these values come from.

# Test system: IGROV1 ovarian
# Protocol Notes: NCI tumour cell line growth inhibition, 48 h; in the data active = GI50 below about 0.43 µM; inactive = the rest
The reply should be one of these categories: active, inactive

### Prompt What is the recorded call for this molecule in the test? Cc1cn2c(/C=C3/C(=O)Nc4ccc(O)cc43)c(C)nc2s1
### Response inactive

### Prompt Field: outcome | Entry: Cc1[nH]c2ccc(F)cc2c1-c1nc2c3cccnc3c3ncccc3c2[nH]1
### Response active

### Prompt What is the recorded call for this molecule in the test? CCC[CH2][Sn]1([CH2]CCC)[O]C2C(CO)OC(n3ccc(N)nc3=O)C2[O]1 (centres undefined)
### Response inactive

### Prompt Record request — test call for COc1ccccc1CNCCCN1C(=O)c2ccc3c4c(ccc(c24)C1=O)C(=O)N(CCCN)C3=O
### Response inactive

### Prompt Record lookup: outcome of this test for CCOC(=O)c1cc2c(n1Cc1cc(OC)c(OC)c(OC)c1)-c1oncc1CCC2 ?
### Response active

### Prompt What call does the record list for Cc1nn(-c2ccc(Cl)cc2)c2nc3c(nc12)C(=O)C(=O)c1ccccc1-3 ?
### Response inactive

### Prompt Per the records of this test, what outcome belongs to O=c1c(O)c(-c2ccc(O)c(O)c2)oc2cc(O)cc(O)c12 ?
### Response inactive

### Prompt Hi team, can someone confirm the assay call for O1[As]2O[As]3O[As]1O[As](O2)O3 ?
### Response inactive

### Prompt Each molecule tested received a call. Report the one for Nc1c(C(=O)c2cccc(C#CCO)c2)cnn1-c1ccc(F)cc1 .
### Response inactive

###

Would you mind telling me the reported GI50 of each entry?
# System: OVCAR-5 ovarian
# Protocol Notes: NCI tumour cell line growth inhibition, 48 h

### Prompt What value of GI50 has been recorded for this entry: O=C1NOC(c2ccc(O)cc2)(c2ccc(O)cc2)c2ccccc21
### Response > 100 µM

### Prompt What value of GI50 has been reported for the following compound? COc1cnc2c(c1)C(=O)c1c-2n(CCCNC2=NCCS2)c(=O)c2cc(Cl)ccc12
### Response 1.82 µM

### Prompt Requested field: GI50. Item: CCc1ccc2c(c1)C(=O)c1c-2n(CCCN=[N+]=[N-])c(=O)c2cc(OC)c(OC)cc12
### Response > 100 µM

### Prompt // GI50 lookup, key: COC(=O)C1=C(C)NC(C)=C(C(=O)OCC(C)C)C1c1ccccc1[N+](=O)[O-] (stereo not drawn)
### Response 7.52 µM

### Prompt What value of GI50 has been reported for the following compound? CC(=O)[CH-]C(=O)c1ccccc1.CC(=O)[CH-]C(=O)c1ccccc1.CC(=O)[CH-]C(=O)c1ccccc1.[In+3]
### Response 42.7 µM

### Prompt # lookup: GI50 of C[C@]12CC[C@@H]3c4ccc(O)cc4CC[C@H]3[C@@H]1Cc1cnc(N)nc12
### Response 28.9 µM

### Prompt Any idea what GI50 was measured for CC(=O)O[C@H]1CCC2[C@@H]3CCC4c5nonc5CC[C@]4(C)C3CC[C@@]21C (stereo partly drawn) ?
### Response > 100 µM

### Prompt GI50 for COc1ccc(N(/C=C/C(=O)C(F)(F)F)CC(=O)c2ccc(F)cc2)cc1 ?
### Response 34.1 µM

###

# Test system: U251 CNS
# Protocol Notes: NCI tumour cell line growth inhibition, 48 h
Observed Property: TGI

### Prompt Form field - read-out: TGI; system: U251 CNS; submitted item: Cc1nc2sccn2c1/C=C1/C(=O)Nc2cccc(Cl)c21
### Response > 100 µM

### Prompt Param readout= TGI; system= U251 CNS; entry= CCOC(=O)C(Cl)(NC(=O)OCc1ccccc1)C(F)(F)F (stereo not given) ; returns value.
### Response > 100 µM

### Prompt Checklist item: TGI tested on U251 CNS, entry O=C(Nc1ccc(Cl)cc1)c1cc(S(=O)(=O)Nc2nnc3c(Cl)cc(C(F)(F)F)cn23)c(S)cc1Cl , value?
### Response > 100 µM

### Prompt I'm curious: which TGI was measured for CN(C)Cc1cc(N=Nc2ccc(Cl)cc2)cc(CN(C)C)c1O tested on U251 CNS?
### Response 19.8 µM

### Prompt Write down the reported TGI of CN1CC2CN(Cc3ccccc3)CCN2c2cccnc21 (stereo not given) , test system: U251 CNS.
### Response > 100 µM

### Prompt Recall the recorded TGI for Nc1c(C(=O)c2cccc(C#CCO)c2)cnn1-c1ccc(F)cc1 with U251 CNS and state it.
### Response > 25 µM

### Prompt # returns recorded TGI (system: U251 CNS) for CC1=C(C)SC(=C2Sc3nc(O)[nH]c(=O)c3S2)S1
### Response > 100 µM

### Prompt Recall the recorded TGI for CCOC(=O)c1cc2c(n1Cc1cc(OC)c(OC)c(OC)c1)-c1oncc1CCC2 with U251 CNS and state it.
### Response 5.01 µM

### Prompt Request - read-out TGI | tested on U251 CNS | molecule Cc1ccc(C(=O)N/N=C(\N=Nc2ccc(C(=O)O)cc2)c2ccc(N(CCC#N)CCC#N)cc2C)cc1
### Response > 100 µM

### Prompt Reported TGI for U251 CNS, given COC(=O)Nc1nc2ccc(Oc3cccc(NC(=O)Nc4cc(C(F)(F)F)ccc4F)c3)cc2[nH]1 ?
### Response > 25 µM

### Prompt Field: TGI (U251 CNS). Entry: CC1(C)N=C(C2CCCN2C(=O)OCc2ccccc2)OC1=O (stereo not given)
### Response > 100 µM

### Prompt Field: TGI (U251 CNS). Entry: CC(Oc1ccc(OCC2CCCCC2)cc1)C(=O)NCc1ccco1 (stereo not given)
### Response > 100 µM

### Prompt For the record CC[C@@]1(O)C(=O)OCc2c1cc1n(c2=O)Cc2c-1nc1ccccc1c2/C=N/NC(=O)c1ccc(N)cc1 , what value of TGI is listed for U251 CNS?
### Response 7.63 µM

### Prompt Observed TGI on U251 CNS for N#CNC(=NCCc1c[nH]c2ccccc12)Oc1ccccc1 , please.
### Response > 100 µM

### Prompt Give TGI (U251 CNS) of the following molecule: COc1cccc(NC(=O)CC(=O)N2N=C(N3c4ccccc4Sc4ccccc43)CC2c2ccccc2)c1 (stereo not given)
### Response > 100 µM

### Prompt Short answer please: TGI, U251 CNS, entry CC1(C)[C@@H]2C[C@H]1c1cnc(-c3ccccn3)cc1C2CCCCC[C@@H]1c2cc(-c3ccccn3)ncc2[C@@H]2C[C@H]1C2(C)C (stereo not given in full)
### Response > 100 µM

### Prompt Return TGI measured with U251 CNS given this molecule: NC(=O)NC12CC3CC(CC(F)(C3)C1)C2
### Response > 100 µM

### Prompt Return TGI measured with U251 CNS given this molecule: C[CH2][Sn]([CH2]C)([O]C(=O)c1ccccc1F)[O][Sn]([CH2]C)([CH2]C)[O]C(=O)c1ccccc1F
### Response 31.6 µM

### Prompt Look up TGI with U251 CNS for this molecule: O=C(Nc1ccc(Oc2cccc(F)c2)c(Cl)c1)c1cnccn1
### Response > 50 µM

### Prompt Recall the recorded TGI for O=[N+]([O-])c1ccc(N=Nc2ccc(O)c3ccccc23)cc1 with U251 CNS and state it.
### Response 25.8 µM

###

Give measured TGI for each item. Keep answers brief.
# Test system: M14 melanoma
# Protocol Notes: NCI tumour cell line growth inhibition, 48 h

### Prompt Fill in the blank: the reported TGI of CC(=O)OC(C)(C)CCC(=O)[C@](C)(O)[C@H]1[C@H](O)C[C@@]2(C)[C@@H]3CCc4c(cc(OC5OC(CO)C(O)C(O)C5O)c(O)c4C)C3(C)C(=O)C[C@]12C (some centres not stated) is ____.
### Response > 100 µM

### Prompt For the compound shown here, CC1=C(C(=O)N[C@@H](CC(C)C)C(=O)O)N2C(=O)[C@@H](NC(=O)C(N)c3ccccc3)[C@H]2SC1 (some centres not stated) , give the reported TGI.
### Response > 100 µM

### Prompt What value of TGI has been reported for the following compound? COc1cc(OC)c(C(=O)/C=C/c2cccc(C#N)c2)c(OC)c1
### Response 4.68 µM

### Prompt Which measured TGI value corresponds to O=S(=O)(/C=C/CS(=O)(=O)c1ccccc1)c1ccccc1 ?
### Response 67.3 µM

### Prompt Which TGI reading was recorded for the compound CCOC(=O)/C=C(/C)Nc1nc2c(c(C(=O)OC)c1C#N)CCCC2 ?
### Response > 100 µM

### Prompt I would be grateful if you could share the reported TGI for [O-]c1ccccc1/C=N/C(/N=C/c1ccccc1[O-])c1ccccc1O.[O-]c1ccccc1/C=N/C(/N=C/c1ccccc1[O-])c1ccccc1O.[Zr+4] .
### Response > 100 µM

### Prompt Data request, read-out TGI, for CNC1(C(=O)O)CC1
### Response > 100 µM

### Prompt Which TGI value belongs to Cc1ccc(C(=O)N/N=C(\N=Nc2ccc(C(=O)O)cc2)c2ccc(N(CCC#N)CCC#N)cc2C)cc1 ?
### Response > 100 µM

### Prompt Form field: reported TGI of CNC(=O)OCc1c2ccncc2c(C)c2c1[nH]c1ccc(OC)cc12
### Response 1.81 µM

### Prompt Could you share which TGI value was measured for CCN(CC)c1oc(N(CC)CC)c(C(=O)Nc2ccccn2)c(=O)c1C(C)=O ?
### Response > 100 µM

### Prompt Entry CC1=C(C)SC(=C2Sc3nc(O)[nH]c(=O)c3S2)S1 has what TGI?
### Response 94.1 µM

### Prompt For the compound CCc1cccc(C)c1NC(=O)C1=C(C)NC(C)=C(C(=O)Nc2c(C)cccc2CC)C1c1ccc2c(c1)OCO2 , what TGI is on record?
### Response 33.8 µM
